Assay overview: Pharmacokinetic (PK) assay
Type: in vivo, mice
Experimental parameters: male, Crl:CD1 ICR, mouse, plasma, intraperitoneal, 25 mg/kg, Time 2 h; read-out: concentration (pharmacokinetic properties)
Experimental readout: concentration at 2 h (µM)
Enter your answer as a number in µM; do not include the unit.

I have this compound here, Cc1c(C(=O)NC(CCC2CC2)C(=O)Nc2ccc(C#N)cc2)[nH]c2c1C(=O)CC(C)(C)C2 (stereo not shown) , and I need its recorded concentration at 2 h. 25.8

###

Assay overview: Liver microsomal stability assay, human
Assay type: in vitro ADME
Experimental parameters: human, liver microsomes, Metabolic stability, % remaining of RK-701, Human; Time 10; replicate values
Experimental readout: remaining at 10 min, 1 µM
Give the number first and the unit second.

I have this compound here, Cc1c(C(=O)NC(CCC2CC2)C(=O)Nc2ccc(C#N)cc2)[nH]c2c1C(=O)CC(C)(C)C2 (stereo not shown) , and I need its recorded remaining at 10 min, 1 µM. 95.5%

###

Target entity: PRMT6 (Homo sapiens, UniProt Q96LA8)
Sequence (Q96LA8 whole entry): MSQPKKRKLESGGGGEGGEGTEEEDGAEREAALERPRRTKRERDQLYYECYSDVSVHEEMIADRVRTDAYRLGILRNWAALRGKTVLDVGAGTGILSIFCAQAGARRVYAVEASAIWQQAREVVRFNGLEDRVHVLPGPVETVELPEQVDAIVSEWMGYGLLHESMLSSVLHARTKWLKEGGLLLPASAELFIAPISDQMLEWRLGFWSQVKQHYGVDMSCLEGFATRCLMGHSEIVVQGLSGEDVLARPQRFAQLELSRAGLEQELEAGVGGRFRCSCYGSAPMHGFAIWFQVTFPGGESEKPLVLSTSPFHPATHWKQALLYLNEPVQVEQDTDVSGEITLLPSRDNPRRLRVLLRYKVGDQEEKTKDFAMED
Assay overview: Radioisotope-based methyltransferase assay (selectivity)
Experimental readout: IC50

I have this molecule here, Cc1c(C(=O)NC(CCC2CC2)C(=O)Nc2ccc(C#N)cc2)[nH]c2c1C(=O)CC(C)(C)C2 (stereo not shown) [RK-701] , and I need its recorded IC50. > 100 µM

###

Target entity: NSD3 (Homo sapiens, UniProt Q9BZ95)
Construct: purchased Reaction Biology
Sequence (Q9BZ95 1-1437): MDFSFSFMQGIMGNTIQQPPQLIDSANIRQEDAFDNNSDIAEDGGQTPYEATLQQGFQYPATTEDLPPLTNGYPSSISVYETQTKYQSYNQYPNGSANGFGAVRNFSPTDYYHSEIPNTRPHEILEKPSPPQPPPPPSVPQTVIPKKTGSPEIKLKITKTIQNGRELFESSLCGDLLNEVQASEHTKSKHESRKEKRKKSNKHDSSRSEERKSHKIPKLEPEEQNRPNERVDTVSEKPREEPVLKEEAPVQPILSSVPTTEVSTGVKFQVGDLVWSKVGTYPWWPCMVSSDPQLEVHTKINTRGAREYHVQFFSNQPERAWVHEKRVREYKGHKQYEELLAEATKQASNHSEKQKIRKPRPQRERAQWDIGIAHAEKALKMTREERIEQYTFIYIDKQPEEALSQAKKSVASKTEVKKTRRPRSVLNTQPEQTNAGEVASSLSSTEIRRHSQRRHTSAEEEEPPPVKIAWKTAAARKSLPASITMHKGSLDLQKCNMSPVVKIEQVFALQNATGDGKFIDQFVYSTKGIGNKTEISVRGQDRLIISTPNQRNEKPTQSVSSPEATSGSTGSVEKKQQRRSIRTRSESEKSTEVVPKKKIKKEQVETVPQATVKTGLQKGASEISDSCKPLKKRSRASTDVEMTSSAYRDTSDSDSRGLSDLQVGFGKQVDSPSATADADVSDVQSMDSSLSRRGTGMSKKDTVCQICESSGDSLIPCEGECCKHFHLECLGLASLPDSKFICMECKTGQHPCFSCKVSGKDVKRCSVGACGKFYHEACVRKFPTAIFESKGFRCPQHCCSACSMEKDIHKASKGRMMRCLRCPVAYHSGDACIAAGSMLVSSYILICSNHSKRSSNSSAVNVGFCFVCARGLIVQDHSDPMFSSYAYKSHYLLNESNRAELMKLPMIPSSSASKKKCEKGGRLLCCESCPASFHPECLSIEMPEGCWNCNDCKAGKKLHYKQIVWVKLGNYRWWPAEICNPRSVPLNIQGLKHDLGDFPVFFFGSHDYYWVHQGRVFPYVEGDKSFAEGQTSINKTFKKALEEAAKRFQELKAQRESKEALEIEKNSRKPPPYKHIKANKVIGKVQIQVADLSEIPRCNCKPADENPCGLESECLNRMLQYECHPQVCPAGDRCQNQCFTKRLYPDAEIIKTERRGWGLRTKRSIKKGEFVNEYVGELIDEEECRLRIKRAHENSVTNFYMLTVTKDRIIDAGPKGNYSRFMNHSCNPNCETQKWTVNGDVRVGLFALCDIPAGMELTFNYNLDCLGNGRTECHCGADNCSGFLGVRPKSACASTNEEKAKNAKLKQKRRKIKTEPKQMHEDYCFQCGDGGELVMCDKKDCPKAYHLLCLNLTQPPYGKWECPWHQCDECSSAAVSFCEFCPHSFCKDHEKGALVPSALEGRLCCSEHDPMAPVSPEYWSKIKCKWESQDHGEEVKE
Assay overview: Radioisotope-based methyltransferase assay (selectivity)
Type: biochemical
Experimental parameters: IC50, NSD3; RK-701 in duplicate
Experimental readout: IC50 (nM)
Enter your answer as a number in nM; do not include the unit.

I have this molecule here, CN1C(=O)[C@@]23C[C@]4([C@]56C[C@@]78SS[C@@](CO)(C(=O)N7[C@H]5Nc5ccccc56)N(C)C8=O)c5ccccc5N[C@@H]4N2C(=O)[C@]1(CO)SS3 [Chaetocin, reference compound] , and I need its recorded IC50. 150

Origin of the recorded values: paper PMC9837035
